Biological target: T1, cynoPD-1 His (AcroBiosystems PD1-C5223) (cynomolgus monkey, UniProt B0LAJ3 25-170)
T1 construct: also called cPD-1; cynomolgus PD-1 His-tagged
T1 sequence (B0LAJ3 entry or part of it limits assumed): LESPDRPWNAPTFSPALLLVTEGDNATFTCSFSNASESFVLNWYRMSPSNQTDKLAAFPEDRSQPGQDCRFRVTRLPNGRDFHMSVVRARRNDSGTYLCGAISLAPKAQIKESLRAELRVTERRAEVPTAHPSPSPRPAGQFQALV
Assay: BLI (legend: SPR), Ab on sensor
Property: Kd (nM)
Number in nM, nothing else.

Look over these answered cases.
Binder	Measurement units	Kd
40B20 (antibody, V domains shown, used with CH1,2,3 and corresponding CL) VH: EVQLVESGGGLVQPGGSLRLSCAASGFTFSSYSMNWVRQAPGKGLQWVSYITSSSNTMYYADSVKGRFTISRDNAKNSLYLQMNSLRDEDTAVYYCASIVGAPFDYWGQGTLVTVSS VL: EIVMTQSPATLSVSPGERATLSCRASQSVSSSLAWYQQKPGQAPRLLIYGASTRATGIPARFSGSGSGTEFTLTISSLQSEDFAAYYCQQYNNWPFTFGPGTKVDIK	nM	7.51
20H02 (antibody, V domains shown, used with CH1,2,3 and corresponding CL) VH: EVLLVESGGGLVQPGGSLRLSCAASGFTFSSYSMNWVRQAPGKGLEWVSFISSSSPTLYYADSVKGRFTISRDNAKNSLYLQMNSLRDEDTAVYYCARQGLTPFDYWGQGTLVTVSS VL: EIVMTQSPATLSVFPGERATLSCRASQSVSSYLAWYQQKPGQAPRLLIYGASTRATGIPARVSGSGSGTEFILTISSLQSEDFAVYYCQQYNNWPYTFGQGTKLEIK	nM	6.39
39F23 (antibody, V domains shown, used with CH1,2,3 and corresponding CL) VH: QVQLVESGGGVGQPGRSLRLSCAASGFTFSNYGMHWVRQAPGKGLEWVAVIWYDGSKKYYADSVKGRFTISRDNSKNTLYLQMNSLRVEDTAVYYCVGNSGHWGQGTLVTVSS VL: DIVMTQTPLSLPVTPGEPASISCRSSQSLLDSDDGNTYLDWYLQKPGQSPQLLIYTLSYRASGVPDRFSGSGSGTDFTLKISRVEAEDVGVYYCMQCIEFPHTFGGGTKVEIK	nM	1.3

What measured Kd goes with 56H02 (antibody, V domains shown, used with CH1,2,3 and corresponding CL) VH: QVQLVQSGAEVKKPGASVKVSCKASGYTFTSYFMHWVRQAPGQGLEWMGLINPDGGNTDYAQKFQGRVTMTRDTSTSTVYMELSSLRSEDTAVYYCARDGNYYDSSGYYYPDAFDIWGQGTMVTVSS VL: SSELTQDPAVSVALGQTVRITCQGDSLRRFYASWYQQKPGQAPVIVIYGKDNRPSGTPDRFSGSTSGNTASLTITGAQAEDEADYYCNSRDSSGTHVVFGGGTKLTVL ?
0.262

These data points were gathered from patent US20260207767A1.
